Data credit: patent US20260232732A1

- System tested: T1, biotin-peptide IPNMADDYGS (human)
- T1 peptide: Biotin-IPNMADDYGS
- Measurement notes: ELISA biotin-peptide; scFv 10 ug/mL; repI
Where no end group is shown, it is not given here. The star is where a group is joined. Biotin = O=C1N[C@H]2[C@H](CS[C@H]2CCCCC(=O)*)N1
Documented OD450 across a set of binders

[
  {
    "Binder": "Comparative antibody 1 (Comp-1) scFv, SEQ ID NO: 10 from WO2023/037125 A1, His-tagged (scFv) scFv: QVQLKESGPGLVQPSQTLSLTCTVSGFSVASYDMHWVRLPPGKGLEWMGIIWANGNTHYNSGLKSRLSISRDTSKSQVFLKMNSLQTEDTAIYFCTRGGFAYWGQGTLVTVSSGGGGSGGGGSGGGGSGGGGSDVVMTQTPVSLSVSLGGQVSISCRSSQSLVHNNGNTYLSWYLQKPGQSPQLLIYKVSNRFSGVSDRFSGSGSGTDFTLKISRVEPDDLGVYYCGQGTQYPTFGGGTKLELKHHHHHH",
    "Unit abbrev": "OD",
    "OD450": 0.16
  },
  {
    "Binder": "CCR9_HUM2 scFv (humanized anti-CCR9 scFv, SEQ ID NO: 17 with C-terminal 6xHis tag) (scFv) scFv: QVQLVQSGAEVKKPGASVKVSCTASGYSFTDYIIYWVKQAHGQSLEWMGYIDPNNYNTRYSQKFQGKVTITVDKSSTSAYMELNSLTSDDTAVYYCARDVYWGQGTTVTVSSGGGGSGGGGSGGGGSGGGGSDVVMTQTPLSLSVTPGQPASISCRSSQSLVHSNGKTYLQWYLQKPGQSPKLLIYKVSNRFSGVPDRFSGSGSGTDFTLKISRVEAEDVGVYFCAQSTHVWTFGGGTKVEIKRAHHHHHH",
    "Unit abbrev": "OD",
    "OD450": 0.14
  },
  {
    "Binder": "Comparative antibody 2 (Comp-2) scFv, 243LO326 (VH SEQ ID NO: 51 and VL SEQ ID NO: 52 of WO 2022/195028 A2), His-tagged (scFv) scFv: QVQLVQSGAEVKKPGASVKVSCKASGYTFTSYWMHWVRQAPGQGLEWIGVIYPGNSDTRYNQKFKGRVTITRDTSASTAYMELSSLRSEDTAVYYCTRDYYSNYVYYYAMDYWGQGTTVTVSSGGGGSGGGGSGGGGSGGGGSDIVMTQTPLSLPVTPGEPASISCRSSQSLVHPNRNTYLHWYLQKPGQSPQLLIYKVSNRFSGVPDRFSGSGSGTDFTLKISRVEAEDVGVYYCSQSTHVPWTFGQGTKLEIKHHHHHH",
    "Unit abbrev": "OD",
    "OD450": 0.1
  },
  {
    "Binder": "Comparative antibody 3 (Comp-3) scFv, SR_92R (Somovilla-Crespo et al. 2018), His-tagged (scFv) scFv: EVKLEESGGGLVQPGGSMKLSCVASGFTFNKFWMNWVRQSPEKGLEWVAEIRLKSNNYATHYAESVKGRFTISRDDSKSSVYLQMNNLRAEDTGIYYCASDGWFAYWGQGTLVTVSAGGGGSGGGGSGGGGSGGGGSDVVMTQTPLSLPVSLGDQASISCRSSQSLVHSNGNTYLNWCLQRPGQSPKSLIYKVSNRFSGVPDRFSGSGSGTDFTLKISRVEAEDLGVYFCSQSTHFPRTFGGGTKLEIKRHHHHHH",
    "Unit abbrev": "OD",
    "OD450": 1.59
  }
]
